- assay notes: HUVEC growth inhibition – cell-based, human, primary screen (AID 575);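 note: 100% = median of untreated cell wells with 0.1% DMSO on each plate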
- settings: HUVEC proliferation, CellTiter-Glo luminescence, 72 h; at 10 µM; stronger effect = lower value
The source made the active and inactive calls.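 Rule for the calls: active = viability at or below 30% in both replicate assays; inconclusive = viability at or below 30% in just one of the two assays; inactive = the rest.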
viability for assorted compounds
readout type: viability

compound	readout type	reported measurement
O=C(NCc1ccco1)C1CCN(S(=O)(=O)N2CCC3(CC2)OCCO3)CC1	viability	118% (inactive)
CCCc1ccc(S(=O)(=O)NCCc2ccncc2)cc1	viability	85.4% (inactive)
COc1cc(C(=O)OCC(=O)N(C)Cc2ccccc2)cc(OC)c1OC	viability	103% (inactive)
CCC(=O)N1CCc2cc(S(=O)(=O)CCC(=O)Nc3ccc(C)c(F)c3)ccc21	viability	91.6% (inactive)
Cc1cccc(CCNC(=O)C2CCCN(S(=O)(=O)c3cnc[nH]3)C2)c1 (stereo not drawn)	viability	103% (inactive)
Cc1nc(Nc2nc(=O)c3ccccc3n2C)nc2c(C)cccc12	viability	89.5% (inactive)
CCOC(=O)CSc1nnc(-c2ccc(S(=O)(=O)N3CCOCC3)cc2)n1-c1ccccc1	viability	94.4% (inactive)
CCc1nc(NCCCN2CCOCC2)c2oc3ccccc3c2n1	viability	80.3% (inactive)
COc1ccc(S(=O)(=O)C(C#N)c2nc3ccccc3nc2N2CCCC(C)C2)cc1 (stereo not drawn)	viability	51.2% (inactive)
O=C(NCc1cccnc1)C1CCCN(S(=O)(=O)c2ccc(Cl)cc2)C1 (stereo not drawn)	viability	77.1% (inactive)
COC(=O)c1cc2ccsc2n1Cc1nc(-c2ccc(OC)cc2)oc1C	viability	67.5% (inactive)
CCOc1ccc(NC(=O)CN(C)CC(=O)NC2CCCc3ccccc32)cc1OCC (stereo not drawn)	viability	100% (inactive)
C=Cn1nc(C)c2ccccc2c1=O	viability	105% (inactive)
CC(C)(C)Nc1nc(NC(C)(C)C)nc(-n2ccnc2)n1	viability	69% (inactive)
CCCNS(=O)(=O)c1ccc(OCC(=O)NCc2ccc3c(c2)OCO3)cc1	viability	88.2% (inactive)
CC1=C(C(=O)NC2CCC(C)CC2)C2(CCC(C)CC2)OC1=O (stereo not drawn)	viability	96.2% (inactive)
O=C(Cn1ccc2ccccc2c1=O)NCCC(=O)N1CCN(C(=O)c2ccco2)CC1	viability	102% (inactive)
O=C(CSc1ncnc2ccccc12)NCCCO	viability	103% (inactive)
COc1ccc(CCNC(=O)C2CC(=O)N(c3ccccc3)C2)cc1OC (stereo not drawn)	viability	89.7% (inactive)
C/C(N)=C(/C#N)C(=O)COC(=O)CCSc1ccccc1	viability	84.4% (inactive)
Cc1cccc(OCC(=O)N(Cc2cccs2)C2CCS(=O)(=O)C2)c1C (stereo not drawn)	viability	72.8% (inactive)
CC(C)Nc1ncnc2c1cnn2-c1ccccc1	viability	88.3% (inactive)
CCN(CC)C(=O)CSc1nc2ccccc2c(=O)n1CCC(=O)NCc1ccc(F)cc1	viability	98.3% (inactive)

----------
compounds and their reported viability
- assay notes: HUVEC growth inhibition – cell-based, human, primary screen (AID 575);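 note: 100% = median of untreated cell wells with 0.1% DMSO on each plate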
- settings: HUVEC proliferation, CellTiter-Glo luminescence, 72 h; at 10 µM; stronger effect = lower value
readout type: viability (%)

compound	readout type	reported measurement
CCOC(=O)c1c(C)c(C(=O)NCC2CCCO2)c(C)n1C (configuration not stated)	viability	83.5
O=C(NCC(c1cccnc1)N1CCN(c2ccccc2)CC1)c1ccc2c(c1)OCO2 (configuration not stated)	viability	105
COCCNc1nc(SCC(=O)N2CCN(c3ccccc3)CC2)nc2ccccc12	viability	84.4
C[C@@H]1C[C@H]2[C@@H]3CCC4=CC(=O)C=C[C@]4(C)[C@@]3(F)[C@@H](O)C[C@]2(C)[C@@]1(O)C(=O)COP(=O)(O)O	viability	102
O=[n+]1c2c(n([O-])c3cc(F)c(N4CCCC4)cc31)CCC2	viability	90.6
COc1cccc(S(=O)(=O)Nc2cccnc2)c1	viability	88.2
Cc1noc(C)c1COC(=O)c1ccccc1Oc1ccccc1	viability	79.1
CCOc1c(C)cc2[nH]c(CCC(=O)O)nc2c1C	viability	95.4
O=C(C1CCN(c2nnnn2-c2ccccc2)CC1)N1CCN(c2ccccc2)CC1	viability	85.6
N#Cc1c(NC(=O)CSc2nnnn2C2CCCC2)sc2c1CCCC2	viability	94.6
COc1ccc(OC)c(C2/C(=C(\O)c3ccc4c(c3)OCCO4)C(=O)C(=O)N2CCCN(C)C)c1 (configuration not stated)	viability	111
Nc1nnc(-c2cccc(Cl)c2Cl)c(N)n1	viability	103
COc1cc(-c2nc(S(=O)(=O)c3ccccc3)c(N3CCOCC3)o2)cc(OC)c1OC	viability	97.7
c1ccc(-c2noc(C34CC5CC(CC(C5)C3)C4)n2)nc1	viability	94.8
CCCSc1nc2c(cnn2-c2ccc(Cl)cc2)c(=O)[nH]1	viability	98.1
COCCNC(=O)C(c1ccc(O)cc1)N(Cc1ccco1)C(=O)CCC(=O)Nc1nccs1 (configuration not stated)	viability	104
COc1ccc(C2=Nn3c(nnc3-c3ccccc3)SC2)cc1OC	viability	78.1
O=C(CSc1nnc(COc2ccc(Cl)cc2)o1)N1CCN(c2ccccc2)CC1	viability	57
O=C(CCN1CCc2ccccc2C1)Nc1ccc2c(c1)OCO2	viability	84.4
O=C(CSc1nnc(C2CC2)n1Cc1ccccc1)c1ccc(S(=O)(=O)N2CCOCC2)cc1	viability	95
CCCCn1nnc(NC(=O)c2cc3ccccc3o2)n1	viability	119
COc1ccc(Cn2c(CCCO)nc3ccccc32)cc1OC	viability	105

----------
- assay notes: RAM signaling pathway blockade in yeast – S. cerevisiae, Pdr1DBD-CYC8 efflux-inhibited sensitized strain, primary screen (AID 1298);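 note: 0% = DMSO untreated cells without growth and 100% = 10 µM 1-NA-PP1 full growth; higher means more yeast growth rescued from 5-FOA killing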
- settings: S. cerevisiae cbk1-as DSE1-URA3 strain, 5-FOA growth OD615, 2 d; at 50 µM; stronger effect = higher value
Calls of active or inactive are those of the source.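 Rule for the calls: active = RAM network inhibition above 8.4% in each of two replicates, 3 SD over the compound average; inconclusive = above 8.4% inhibition in only one replicate; inactive = 8.4% inhibition or less in each replicate.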

compound	RAM network inhibition
CN1c2ccccc2-c2nc3ccccc3n2C1c1ccccn1 (stereo unspecified)	4.06% (inactive)
Cc1nc(N2CCN(c3ccccc3)CC2)c2c3c(sc2n1)CCC3	1.62% (inactive)
COC(=O)c1ccccc1NC(=O)Nc1nnc(N2CCCCC2C)s1 (stereo unspecified)	1.05% (inactive)
CC1CC(C)CN(S(=O)(=O)c2cccc3cccnc23)C1 (stereo unspecified)	1.83% (inactive)
Cc1cccc(Cn2c(N3CCCCC3C)nc3c2c(=O)[nH]c(=O)n3C)c1 (stereo unspecified)	2.4% (inactive)
COc1ccc(Nc2cc(C)nc3nc(C)nn23)cc1Cl	-0.01% (inactive)

----------
- assay notes: reversal of MRP1-mediated doxorubicin resistance, pilot screen, H69AR cells, doxorubicin co-treatment (AID 601)
- settings: H69AR cells + 2 uM doxorubicin, CellTiter-Glo, 72 h; measured here: viability with 2 uM doxorubicin; at 10 µM; stronger effect = lower value

molecule	viability
COc1cccc(Oc2cn[nH]c2-c2ccc(O)cc2O)c1	98.4%
NC(=O)NC(c1ccccc1)c1ccccc1F (configuration not stated)	98.3%
Cc1cc(C)n2cc(CSc3nnnn3-c3ccc(Cl)cc3)nc2n1	90.5%
N#Cc1ccccc1NC(=O)CSc1nnc(-c2ccccc2)n1-c1ccccc1	93.8%
Cc1ccc(S(=O)(=O)N2CCOCC2)cc1C(=O)Nc1ccccn1	86.1%
CC(=O)N(C(C)=O)c1c(C#N)c(C)n(-c2ccccc2)c1C(=O)c1ccccc1	87%
CCOC(=O)c1sc(NC(=O)CNC(=O)Cn2cnc3sc(C)c(C)c3c2=O)nc1C	96.7%
Cc1cccc(-n2c(Cc3cc(=O)[nH]c(=O)[nH]3)nnc2SCC(=O)NCc2ccco2)c1	97.1%
Cc1nnc(SCc2nc3ccccc3s2)n1-c1ccccc1	81.3%
CCN1CCN(S(=O)(=O)c2ccc(S(=O)(=O)N(CC)Cc3ccccc3)cc2)CC1	99%
COC(=O)N1CC(c2ccccc2)CC1=O (configuration not stated)	85%
Cc1nnc(SCC(=O)Nc2cc(C(F)(F)F)ccc2N2CCOCC2)o1	89%
CCOc1ccccc1NS(=O)(=O)c1c(C)noc1C	92.1%
c1ccc(Cn2nnnc2CN2CCN(c3ncccn3)CC2)cc1	101%
Cc1nc2cc(Cl)ccc2n1CCO	84.4%
Cc1c(C(=O)O)sc2ncn(C)c(=O)c12	91.7%
CCOC(=O)c1c(C)c(C(=O)NCCN2CCOCC2)c(C)n1C	90.5%
O=C(CSc1nnc(C2CC2)n1Cc1ccccc1)c1ccc(S(=O)(=O)N2CCOCC2)cc1	74.4%
CC1CCCC(NC(=O)CSc2ncccc2C(=O)O)C1C (configuration not stated)	84.7%
Cc1ccc(C)c(NC(=O)c2ccc3c(c2)N(Cc2ccc(F)cc2)C(=O)CS3=O)c1 (configuration not stated)	93.1%
C[C@H]1C[C@@H]2[C@H]([C@@H](O)C[C@@]3(C)[C@H]2CC[C@]3(O)C(=O)CO)[C@@]2(C)C=CC(=O)C=C12	78.7%
CCOC(=O)c1cc2n(n1)C(C(F)(F)C(F)(F)F)CC(C)N2 (configuration not stated)	93%

----------
Overview of reported viability increase across a group of molecules:
- assay notes: viability gain of MRP-1-high H69AR cells under doxorubicin, pilot screen, MRP-1 activator project, CellTiter-Glo, duplicate (AID 807);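 note: compound pretreatment 18-22 h then 72 h combined with doxorubicin; 0% = doxorubicin alone and 100% = vehicle without doxorubicin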
- settings: H69AR viability with doxorubicin, CellTiter-Glo luminescence; at 10 µM; stronger effect = higher value
readout type: viability increase (%)

molecule	reported measurement
COc1ccc(OC)c(N(CC(=O)NCCSc2ccccc2)S(C)(=O)=O)c1	-3.1
CCOc1ccc(C2CC(c3cccc(Cl)c3)n3nc(N)nc3N2)cc1 (stereo unspecified)	-0.08
Cn1c(=O)[nH]c(=O)c2c1nc(CN1CCOCC1)n2Cc1ccc(F)cc1	-3.24
O=C(c1ccco1)N1CCN(C(=O)C2Cc3ccccc3CN2S(=O)(=O)c2ccc(F)cc2)CC1 (stereo unspecified)	-4.67
Cc1ccc(NC(=O)C2C3C=CC4(CN(Cc5cccnc5)C(=O)C24)O3)cc1F (stereo unspecified)	-1.71
COc1cccc(CNC(=O)C2CCN(S(=O)(=O)c3cccc4cccnc34)CC2)c1	-1.45
c1cncc(-c2noc(-c3ccco3)n2)c1	1.76
Cc1ccc(N(CC(=O)NC2CC3CCC2C3)S(C)(=O)=O)cc1C (stereo unspecified)	-2.03
Cc1ccc2c(c1)NC(=O)C(CC(=O)NCCCN1CCCCC1C)O2 (stereo unspecified)	-1.72
COCC(=O)NC(C)c1nc2ccccc2[nH]1 (stereo unspecified)	-1.7
Nc1nc(Nc2ccccc2Br)nc(C(F)(F)F)n1	0.23
